property-measured: melting point

Below, each entry is followed by its recorded melting point result.
INSERT INTO measurements (compound, measured_value) VALUES
  ('O=C(Nc1ccc(C(F)(F)F)cc1)Nc1cccc(OCc2ccccc2)c1 [Compound 37]', '208 to 210 °C'),
  ('O=C(Nc1ccc(Oc2ccc(C(=O)O)cc2)cc1)NC12CC3CC(CC(C3)C1)C2 [Compound 65]', '162 to 166 °C'),
  ('O=C(Nc1ccc(Oc2cccc(C(=O)O)c2)cc1)NC12CC3CC(CC(C3)C1)C2 [Compound 59]', '185 to 187 °C'),
  ('O=C(Nc1ccc(Oc2ccc(C(=O)O)cc2)cc1)Nc1ccc(C(F)(F)F)cc1 [Compound 66]', '> 400 °C');

Read the next record carefully.
## Input Given O=C(Nc1ccc(F)cc1)Nc1cccc(OCc2ccccc2)c1 [Compound 38] , state its recorded melting point.
## Output 187 to 189 °C
